# Experimental Protocol: Inhibition of NS5A in HCV genotype 1a infected in […] cells assessed as reduction in viral replication incubated for 48 hrs by luciferase reporter gene assay
Assign pEC50 to each entry below.
One number for each entry, as −log10 of the molar value.

Batch of 3 molecules: report pEC50 for each.
1. COC(=O)N[C@H](C(=O)N1[C@H](c2ncc(-c3ccc4c(c3)C(F)(F)c3cc(-c5cnc([C@@H]6C[C@@H]7CCC[C@@H]7N6C(=O)[C@@H](NC(=O)OC)[C@@H](C)OC)[nH]5)ccc3-4)[nH]2)C[C@@H]2CCC[C@@H]21)[C@@H](C)OC
2. COC(=O)N[C@H](C(=O)N1[C@H](c2ncc(-c3ccc4c(c3)-c3ccc(-c5cnc([C@@H]6C[C@@H]7CCCC[C@@H]7N6C(=O)[C@@H](NC(=O)OC)C(C)C)[nH]5)cc3-4)[nH]2)C[C@@H]2CCCC[C@@H]21)C(C)C
3. COC(=O)N[C@@H](CO)C(=O)N1[C@H](c2ncc(-c3ccc4c(c3)-c3ccc(-c5cnc([C@@H]6C[C@@H]7CCC[C@@H]7N6C(=O)[C@@H](NC(=O)OC)C(C)C)[nH]5)cc3-4)[nH]2)C[C@@H]2CCC[C@@H]21

Outgoing:
1: 10.54; 2: 10.70; 3: 10.70

Incoming: Quick one: give measured pEC50 for COC(=O)N[C@H](C(=O)N1[C@H](c2ncc(-c3ccc4c5ccc(-c6cnc([C@@H]7C[C@@H]8CCC[C@@H]8N7C(=O)[C@@H](NC(=O)OC)[C@@H](C)OC)[nH]6)cc5n(C)c4c3)[nH]2)C[C@@H]2CCC[C@@H]21)[C@@H](C)OC
Outgoing: 9.83

----------
# Experimental Protocol: Inhibition of NS5A in patient-derived HCV genotype 3a infected in […] cells assessed as reduction in viral replication incubated for 48 hrs by luciferase reporter gene assay
Assign labels as follows, please: true for EC50 below 20 pM; false for EC50 equal to or exceeding 20 pM.

Below are worked cases with known answers.
Incoming: Please determine if COC(=O)N[C@H](C(=O)N1CCC[C@H]1c1ncc(-c2ccc3c(c2)-c2ccc(-c4cnc([C@@H]5CCCN5C(=O)[C@@H](NC(=O)OC)C(C)C)[nH]4)cc2-3)[nH]1)C(C)C is below 20 pM in terms of EC50.
Outgoing: true

Incoming: I'd appreciate it if you could check whether COC(=O)N[C@H](C(=O)N1[C@H](c2ncc(-c3ccc4c(c3)-c3ccc(-c5cnc([C@@H]6C[C@@H]7CCC[C@@H]7N6C(=O)[C@@H](NC(=O)OC)[C@@H](C)OC)[nH]5)cc3-4)[nH]2)C[C@@H]2CCC[C@@H]21)[C@@H](C)O has EC50 smaller than 20 pM.
Outgoing: true

Incoming: Is it true that EC50 reported for COC(=O)N[C@H](C(=O)N1[C@H](c2ncc(-c3ccc4c(c3)-c3ccc(-c5cnc([C@@H]6C[C@@H]7CCC[C@@H]7N6C(=O)[C@@H](NC(=O)OC)[C@@H](C)O)[nH]5)cc3-4)[nH]2)C[C@@H]2CCC[C@@H]21)[C@@H](C)O is less than 20 pM?
Outgoing: true

Incoming: is_below(EC50, 20 pM) for COC(=O)N[C@H](C(=O)N1[C@H](c2ncc(-c3ccc4c(c3)-c3ccc(-c5cnc([C@@H]6C[C@@H]7CCC[C@@H]7N6C(=O)[C@@H](NC(=O)OC)[C@@H](C)OC)[nH]5)cc3-4)[nH]2)C[C@@H]2CCC[C@@H]21)[C@@H](C)OC ?
Outgoing: true

New cases:
Incoming: hey, is EC50 for COC(=O)N[C@H](C(=O)N1CCC[C@H]1c1nc(-c2ccc(-c3ccc(-c4c[nH]c([C@@H]5CCCN5C(=O)[C@@H](NC(=O)OC)C(C)C)n4)cc3)cc2)c[nH]1)C(C)C lower than 20 pM or not?
Outgoing: false
